Here the recorded GI50 is given for each entry.
Tested on: UACC-257
PROCEDURE DETAILS: NCI tumour cell line growth inhibition, 48 h
Activity calls are given as the source filed them. No stated cut-off is given here; in the data, active = GI50 up to about 1.1 µM and inactive = higher.

[in] For "CC(C)=CCC[C@H](C)[C@H]1CC[C@@H](C)c2cc(O)c(C)cc21" , write its GI50.
[out] 17.4 µM (inactive)

[in] For CC1=NN(C(=O)CC(=O)N(C(=O)c2ccccc2Cl)c2ccc(C)cc2)C(=O)C1/N=N/c1ccc([N+](=O)[O-])cc1 (stereo not given) , write its GI50.
[out] > 78.3 µM (inactive)

* * *

Here the recorded GI50 is given for each entry.
Test system: OVCAR-8
PROCEDURE DETAILS: NCI tumour cell line growth inhibition, 48 h
Activity calls are given as the source filed them. Cut-off read from the data, not from the text of the source: active = GI50 up to about 1.1 µM and inactive = higher.

Would you please look over these solved cases?
COc1ccc2c(c1)nc1n2C(c2c(F)cccc2Cl)SC1 (stereo not given) :: 3.92 µM (inactive)
O=C(CSc1nc2ccc(Cl)cc2c(=O)n1-c1ccccc1)N/N=C1\C(=O)Nc2ccc(F)cc21 :: 1.69 µM (inactive)

[in] For "Cc1cc(C)c2[s+]snc2c1" , write its GI50.
[out] 33.7 µM (inactive)

[in] For "O=[As]O" , write its GI50.
[out] > 43.8 µM (inactive)

[in] For "Cc1cc(C)c(S(=O)(=O)N2CCCN(S(=O)(=O)c3c(C)cc(C)cc3C)OCCCON(S(=O)(=O)c3c(C)cc(C)cc3C)CCCN(S(=O)(=O)c3c(C)cc(C)cc3C)OCCCO2)c(C)c1" , write its GI50.
[out] > 100 µM (inactive)
